- Protocol summary: Metabolic (microsomal) stability assay, rat liver microsomes
- Type: in vitro ADME
- Protocol conditions: predicted clearance as percent of liver blood flow; rat liver microsomes 0.5 mg/mL, 1 μM compound, 37° C.
Property measured: RLM [% QH] (% QH)
Write the value in % QH as a bare number.

query: Given the entry CN(C)C(=O)[C@@H]1CCN(c2ccc(Oc3ccnc4c(Cl)cncc34)cc2)C1 [I-018] , report its measured RLM [% QH].
result: 55

query: Given the entry CN(C)C(=O)CCOc1ccc(Oc2ccnc3c(F)cncc23)cc1 [I-036] , report its measured RLM [% QH].
result: 32

query: Given the entry CN(C)C(=O)Cn1cc(-c2ccc(Oc3ccnc4c(Cl)cncc34)cc2)cn1 [I-043] , report its measured RLM [% QH].
result: 42
